System: Western Flower Thrips (Frankliniella occidentalis)
Test: Insecticidal test against western flower thrips, sprayed cucumber leaves (Test Example 3)
Assay type: in vivo
Conditions: 500 ppm, sprayed 20 ml/cup onto cucumber, thirty larvae on cut first foliage leaves, after 7 days
Observed property: number of surviving insects

Examples with answers:
CC#CCOc1cc(-c2ccccc2F)ncn1    zero
CC#CCOc1cc(Oc2ccc(F)cc2Cl)ncn1    zero
CC#CCOc1cc(O[C@@H]2CCC[C@H]2C)ncn1 (relative stereo)    zero
CC#CCOc1cc(OCC#CC(C)(C)C)ncn1    zero
C#CCOc1cc(-c2ccc(F)cc2)ncn1    zero

-- ask number of surviving insects lookup needed for CC#CCOc1cc(Oc2ccccc2F)ncn1 , thanks.
-- reply zero

-- ask Here is the next molecule: CC#CCOc1cc(OCC#CCC)ncn1
-- reply zero

-- ask Here is the next molecule: CC#CCOc1cc(Oc2cc(F)ccc2F)ncn1
-- reply zero

----------
Examples of compounds with documented melting point follow.
API: value field is a number in °C; no unit string.

Examples with answers:
CC#CCOc1cc(Oc2ccc(Cl)cc2F)ncn1    117.7
CC#CCOc1cc(Oc2c(F)cc(F)cc2F)ncn1    60.3
CC#CCOc1cc(OCC#CCC)ncn1    67.4

-- ask melting point lookup needed for CC#CCOc1cc(Nc2cccc(F)c2F)ncn1 , thanks.
-- reply 147.6

-- ask Here is the next compound: CC#CCOc1cc(Oc2cccc(C#N)c2)ncn1
-- reply 121.2

----------
Sorting guide: entries reporting melting point beneath 70 °C go in the rule met pile, the rest go in the rule not met pile.

Please review the entries below; each comes with its answer.
CC#CCOc1cc(Oc2cccc(C(C)=O)c2)ncn1    rule not met
CC#CCOc1cc(Oc2ccc(C#N)cc2)ncn1    rule not met
C#CCOc1cc(Oc2ccccc2Cl)ncn1    rule not met
CC#CCOc1cc(Oc2ccc([N+](=O)[O-])cc2F)ncn1    rule not met
CC#CCOc1cc(OCC#CC)ncn1    rule not met

-- ask Find out if reported melting point for CC#CCOc1cc(-c2ccc(F)cc2F)ncn1 is less than 70 °C
-- reply rule met

-- ask Here is the next molecule: CC#CCOc1cc(Oc2cccc(F)c2)ncn1
-- reply rule met

-- ask Here is the next molecule: C#CCOc1cc(Oc2ccc(Cl)cc2Cl)ncn1
-- reply rule not met

-- ask Here is the next molecule: C#CCOc1cc(Oc2ccccc2C)ncn1
-- reply rule met

-- ask Here is the next molecule: C#CCOc1cc(Oc2ccc(Cl)cc2)ncn1
-- reply rule not met

-- ask Here is the next molecule: CC#CCOc1cc(Oc2c(F)cccc2F)ncn1
-- reply rule not met

-- ask Here is the next molecule: C#CCOc1cc(-c2ccccc2)ncn1
-- reply rule met

-- ask Here is the next molecule: CC#CCOc1cc(N(C)c2ccccc2)ncn1
-- reply rule met

-- ask Here is the next molecule: CC#CCOc1cc(Oc2ccc(F)c(C(F)(F)F)c2)ncn1
-- reply rule not met

----------
# class assignment by measured melting point: low group: < 70 °C; middle group: ≥ 70 °C and < 100 °C; high group: ≥ 100 °C

C#CCOc1cc(Oc2ccc(F)cc2)ncn1    middle group
C#CCOc1cc(Oc2c(F)cccc2F)ncn1    low group
C#CCOc1cc(Oc2ccc(Cl)c(Cl)c2)ncn1    high group

-- ask Returns: class label. Input: CC#CCOc1cc(Oc2ccc(F)c(F)c2)ncn1
-- reply high group

-- ask Here is the next molecule: CC#CCOc1cc(Cc2c(F)cccc2F)ncn1
-- reply low group

-- ask Here is the next molecule: CC#CCOc1cc(N(C)c2cccc(F)c2F)ncn1
-- reply middle group

-- ask Here is the next molecule: C#CCOc1cc(OCC#C)ncn1
-- reply middle group

-- ask Here is the next molecule: CC#CCOc1cc(Oc2ccc(F)cc2)ncn1
-- reply high group

----------
Sorting guide: entries reporting melting point beneath 70 °C go in the Yes pile, the rest go in the No pile.

Please review the entries below; each comes with its answer.
CC#CCOc1cc(OCc2cccc(F)c2F)ncn1    No
C#CCOc1cc(Oc2cc(Cl)ccc2Cl)ncn1    No
CC#CCOc1cc(-c2ccccc2)ncn1    Yes
CC#CCOc1cc(Nc2ccccc2)ncn1    No
C#CCOc1cc(Oc2cccc(Cl)c2Cl)ncn1    No
CC#CCOc1cc(Cc2cccc(F)c2)ncn1    Yes

Kindly consider the entry below.
-- ask Find out if reported melting point for C#CCOc1cc(Oc2cc(Cl)cc(Cl)c2)ncn1 is less than 70 °C
-- reply No
